Would you kindly list Plant response rating, Soybean for each of these compounds?
test system: soybean; test: Test C pre-/postemergence herbicide test; type: in vivo, Glycine max; settings: Postemergence; 125 g ai/ha; scale 0 to 100 (0 no effect, 100 complete control)
Numbers only.

Here is how some compounds turned out for Plant response rating, Soybean.
O=C1NCC(c2ccc(C(F)(F)F)cc2)C1C(=O)Nc1ccccc1F (centres unmarked) = 10
O=C1NC[C@H](c2cccc(C(F)(F)F)c2)[C@H]1C(=O)Nc1cccc(F)c1F = 5
CN1CC(c2ccc(F)c(F)c2)C(C(=O)Nc2cccc(F)c2F)C1=O (centres unmarked) = 0
O=C1NCC(c2ccc(F)cc2)C1C(=O)Nc1ccc(F)c(F)c1F (racemic) = 0
O=C1NCC(c2ccc(F)c(F)c2)C1C(=O)Nc1cccc(F)c1F (centres unmarked) = 0
O=C1NCC(c2cc(F)c(F)cc2F)C1C(=O)Nc1cccc(F)c1F (centres unmarked) = 15
O=C1NCC(c2cc(F)c(F)c(F)c2)C1C(=O)Nc1cccc(F)c1F (centres unmarked) = 10

Q. // returns reported Plant response rating, Soybean for input Cc1ccccc1NC(=O)C1C(=O)NCC1c1cccc(C(F)(F)F)c1 (racemic)
A. 5

* * *

Task for the reader: assign each of the following compounds its reported Plant response rating.
tested on: mustard, wild; assay: Test D pre-/postemergence herbicide test; assay type: in vivo, Sinapis arvensis; conditions: Preemergence; 250 g ai/ha; Mustard, Wild; scale 0 to 100
Numbers only.

O=C1NCC(c2ccc(Cl)c(F)c2)C1C(=O)Nc1cccc(F)c1F (stereo not shown) = 10
O=C1NCC(c2ccc(C(F)(F)F)cc2)C1C(=O)Nc1cccc(F)c1F (racemic) [Compound 202] = 75
O=C1NCC(c2ccc(C(F)(F)F)cc2)C1C(=O)Nc1cccc(F)c1F (stereo not shown) [Compound 80] = 70

Attention now shifts to the item below.
Q. Need Plant response rating of O=C1NC[C@H](c2cccc(C(F)(F)F)c2)[C@H]1C(=O)Nc1cccc(F)c1F , thanks.
A. 75

* * *

test system: oilseed rape; assay: Test C pre-/postemergence herbicide test; type: in vivo, Brassica napus; conditions: Postemergence; 125 g ai/ha; scale 0 to 100 (0 no effect, 100 complete control)
attribute measured: Plant response rating, Oilseed Rape

O=C1NCC(c2cccc(Br)c2)C1C(=O)Nc1ccc(F)c(F)c1F (centres unmarked) [Compound 310] = 0
Cc1c(F)cccc1NC(=O)C1C(=O)NCC1c1ccc(F)c(F)c1 (racemic) [Compound 106] = 0
O=C1NC[C@H](c2cccc(C(F)(F)F)c2)[C@H]1C(=O)Nc1cccc(F)c1F [Compound 206] = 50
CN1CC(c2cccc(C(F)(F)F)c2)C(C(=O)Nc2cccc(F)c2F)C1=O (centres unmarked) [Compound 305] = 0

# input for lookup
Q. Form field: reported Plant response rating, Oilseed Rape of O=C1NC[C@H](c2cccc(C(F)(F)F)c2)[C@H]1C(=O)Nc1ccccc1F [Compound 204]
A. 0

* * *

test system: pigweed; test: Test D pre-/postemergence herbicide test; type: in vivo, Amaranthus retroflexus; details: Preemergence, 125 g ai/ha; scale 0 to 100 (0 no effect, 100 complete control)
attribute measured: Plant response rating, Pigweed
Give bare numbers.

// below: answered molecules
O=C1NCC(c2ccc(F)c(C(F)(F)F)c2)C1C(=O)Nc1cccc(F)c1F (racemic) [Compound 77] = 80
O=C1NC[C@H](c2cccc(C(F)(F)F)c2)[C@H]1C(=O)Nc1cccc(F)c1F [Compound 206] = 40
O=C1NCC(c2ccc(Cl)c(F)c2)C1C(=O)Nc1cccc(F)c1F (stereo not shown) [Compound 52] = 10

--- query ---
Q. Find the recorded Plant response rating, Pigweed belonging to O=C1NCC(c2ccc(F)c(F)c2)C1C(=O)Nc1ccccc1C(F)(F)F (racemic) [Compound 6] and report it.
A. 0

* * *

Task for the reader: assign each of the following molecules its reported Pigweed plant response rating.
system: pigweed; assay: Test A pre-/postemergence herbicide test; format: in vivo, Amaranthus retroflexus; conditions: Preemergence, 500 g ai/ha; visual rating on 0 to 100 scale (0 no effect, 100 complete control)
Answers are plain numbers.

O=C1NCC(c2cccc(-n3cccn3)c2)C1C(=O)Nc1ccccc1C(F)(F)F (stereo not drawn) = 0
O=C1NCC(c2ccc(Br)c(Br)c2)C1C(=O)Nc1ccccc1Cl (stereo not drawn) = 0
O=C1NCC(c2ccc(Br)c(Br)c2)C1C(=O)Nc1ccc(F)c(F)c1F (stereo not drawn) = 50

// batch mode: one Pigweed plant response rating value per listed entry
1. O=C1NCC(c2cccc(C(F)(F)F)c2)C1C(=O)Nc1ccc(F)c(F)c1F (stereo not drawn)
2. O=C1NCC(c2cccc(C(F)(F)F)c2)C1C(=O)Nc1cc(F)ccc1F (stereo not drawn)

A.
1. 70
2. 0

Q. Endpoint output: Pigweed plant response rating of CCN1CC(c2ccc(C(F)(F)F)cc2)C(C(=O)Nc2cccc(F)c2F)C1=O (stereo not drawn) . Value?
A. 20

* * *

system: kochia; assay: Test A pre-/postemergence herbicide test; type: in vivo, Kochia scoparia; conditions: Postemergence, 500 g ai/ha; 0 to 100 scale (0 no effect, 100 complete control)
attribute measured: Plant response rating, Kochia
Give bare numbers.

O=C1NCC(c2ccc(Cl)o2)C1C(=O)Nc1cccc(F)c1F (centres unmarked) [Compound 285] = 0
O=C1NCC(c2cnn(CC(F)(F)F)c2)C1C(=O)Nc1ccccc1C(F)(F)F (centres unmarked) [Compound 300] = 0
CN1CC(c2ccc(F)cc2)C(C(=O)Nc2ccccc2F)C1=O (centres unmarked) [Compound 270] = 30
O=C1NCC(c2ccc(Cl)s2)C1C(=O)Nc1ccccc1F (centres unmarked) [Compound 292] = 0

Shifting focus to the molecule that follows.
Q. Request body: readout Plant response rating, Kochia, system kochia, query CN1CC(c2ccc(F)c(F)c2)C(C(=O)Nc2cccc(F)c2F)C1=O (centres unmarked) [Compound 303] . Return the value.
A. 80

* * *

test system: giant foxtail; experiment: Test A pre-/postemergence herbicide test; assay type: in vivo, Setaria faberii; conditions: Postemergence, 125 g ai/ha; visual rating on 0 to 100 scale (0 no effect, 100 complete control), approx. 10 days
attribute measured: Plant response rating, Foxtail, Giant
Numbers only.

O=C1NCC(c2ccc(SC(F)(F)F)cc2)C1C(=O)Nc1ccccc1F (centres unmarked) = 0
O=C1NCC(c2cnn(CC(F)(F)F)c2)C1C(=O)Nc1ccccc1F (centres unmarked) = 0
O=C1NCC(c2cccc(Br)c2)C1C(=O)Nc1ccccc1Cl (centres unmarked) = 60

// batch mode: one Plant response rating, Foxtail, Giant value per listed entry
1. O=C1NCC(c2cccc(-n3ccc(C(F)(F)F)n3)c2)C1C(=O)Nc1cccc(F)c1F (centres unmarked)
2. CCN1CC(c2ccc(C(F)(F)F)cc2)C(C(=O)Nc2cccc(F)c2F)C1=O (centres unmarked)
3. O=C1NCC(c2cccc(-n3cccn3)c2)C1C(=O)Nc1ccccc1C(F)(F)F (centres unmarked)
4. O=C1NCC(c2ccc(SC(F)(F)F)cc2)C1C(=O)Nc1ccc(F)c(F)c1F (centres unmarked)
5. O=C1NCC(c2ccc(Br)c(Br)c2)C1C(=O)Nc1ccccc1Cl (centres unmarked)
6. O=C1NCC(c2cccc(Br)c2)C1C(=O)Nc1ccc(F)c(F)c1F (centres unmarked)

A.
1. 20
2. 70
3. 20
4. 0
5. 30
6. 90

For each of the compounds below, state Plant response rating, Foxtail, Giant.
1. O=C1NCC(c2cccc(I)c2)C1C(=O)Nc1cccc(F)c1F (centres unmarked)
2. O=C1NCC(c2cccc(C(F)(F)F)c2)C1C(=O)Nc1cc(F)ccc1F (centres unmarked)

A.
[40, 60]

* * *

test system: giant foxtail; test: Test A pre-/postemergence herbicide test; assay type: in vivo, Setaria faberii; settings: Preemergence, 125 g ai/ha; 0 to 100 scale where 0 is no effect and 100 is complete control
attribute measured: Plant response rating, Foxtail, Giant

Consider the worked cases shown below.
O=C1NCC(c2cccc(-n3ccc(C(F)(F)F)n3)c2)C1C(=O)Nc1cccc(F)c1F (centres unmarked) = 50
CCN1CC(c2ccc(C(F)(F)F)cc2)C(C(=O)Nc2ccccc2F)C1=O (centres unmarked) = 70
O=C1NCC(c2ccc(Cl)c(Cl)c2)C1C(=O)Nc1ccc(F)cc1F (racemic) = 90
O=C1NCC(c2ccc(C(F)(F)F)cc2F)C1C(=O)Nc1ccccc1C(F)(F)F (racemic) = 10

--- query ---
Q. # query: Plant response rating, Foxtail, Giant of entry O=C1NCC(c2cccc(C(F)(F)F)c2)C1C(=O)Nc1cc(F)ccc1F (centres unmarked)
A. 30

* * *

system: wheat (winter wheat); experiment: Test C pre-/postemergence herbicide test; type: in vivo, Triticum aestivum; conditions: Preemergence, 62 g ai/ha; scale 0 to 100 (0 no effect, 100 complete control)
attribute measured: Wheat plant response rating

Worked examples, 3 compounds total:
CN1CC(c2ccc(C(F)(F)F)cc2)C(C(=O)Nc2cccc(F)c2F)C1=O (stereo not shown) [Compound 306] = 50
O=C1NCC(c2ccc(Cl)cc2)C1C(=O)Nc1cccc(F)c1F (stereo not shown) [Compound 218] = 0
O=C1NCC(c2cccc(Br)c2)C1C(=O)Nc1ccc(F)c(F)c1F (stereo not shown) [Compound 310] = 0

Switching to the query record.
Q. Using the record for O=C1NCC(c2ccc(F)c(F)c2)C1C(=O)Nc1ccc(F)c(F)c1F (stereo not shown) [Compound 346] , report its Wheat plant response rating.
A. 0
